# Tested on: supraspinatus beef muscles
# Protocol description: Glycogen content, pre-rigor injection of whole muscle
# Test parameters: 0 h (before injection)
Reported Glycogen, 0 h by item:
Supply the numeric figure in μmol/g muscle, leaving out any unit text.

Reference set, count: 3
>>> df
                                   molecule    value_units  measured_result
0  [Ca+2].[Cl-].[Cl-] [Calcium chloride, calcium chloride, reference compound]  μmol/g muscle            37.98
1  O=C([O-])CC(O)(CC(=O)[O-])C(=O)[O-].[Na+].[Na+].[Na+] [Sodium citrate, sodium citrate]  μmol/g muscle            45.18
2  CC(=O)[O-].[Na+] [Sodium acetate, sodium acetate]  μmol/g muscle            42.83

Proceed to the following item.
The molecule [F-].[Na+] [Sodium fluoride, sodium fluoride, reference compound] showed Glycogen, 0 h equal to 45.49

====

# System: supraspinatus beef muscles
# Protocol description: Muscle pH, pre-rigor injection of whole muscle
# Test parameters: 24 h; 200 mM, calcium chloride 300 mM
Marks after values point to notes of the source that are not given here.
Reported pH, 24 h by item:

In [3]: df
Out[3]:
                                   compound  measured_result
0  [F-].[Na+] [Sodium fluoride, sodium fluoride, reference compound]           6.23^a
1  [Ca+2].[Cl-].[Cl-] [Calcium chloride, calcium chloride, reference compound]           5.88^c
2  CC(=O)[O-].[Na+] [Sodium acetate, sodium acetate]           5.85^c

The compound O=C([O-])CC(O)(CC(=O)[O-])C(=O)[O-].[Na+].[Na+].[Na+] [Sodium citrate, sodium citrate] showed pH, 24 h equal to 6.04^b

====

# Test system: semimembranosus beef muscles
# Protocol description: Muscle pH, pre-rigor injection of whole muscle
# Test parameters: 0 h (before injection)
Reported pH, 0 h by item:
Just the number, please.

In [3]: df
Out[3]:
                                   compound  readout  measured_result
0  [Ca+2].[Cl-].[Cl-] [Calcium chloride, calcium chloride, reference compound]  pH, 0 h             6.76
1  CC(=O)[O-].[Na+] [Sodium acetate, sodium acetate]  pH, 0 h             6.75
2  O=C([O-])CC(O)(CC(=O)[O-])C(=O)[O-].[Na+].[Na+].[Na+] [Sodium citrate, sodium citrate]  pH, 0 h             6.68

Proceed to the following item.
The compound [F-].[Na+] [Sodium fluoride, sodium fluoride, reference compound] showed pH, 0 h equal to 6.70

====

# Tested on: supraspinatus beef muscles
# Protocol description: Muscle pH, pre-rigor injection of whole muscle
# Test parameters: 72 h; 200 mM, calcium chloride 300 mM
Marks after values point to notes of the source that are not given here.
Readout: pH, 72 h

>>> print(df.to_string())
                                   compound   readout  measured_result
0  [Ca+2].[Cl-].[Cl-] [Calcium chloride, calcium chloride, reference compound]  pH, 72 h           5.54^c
1  [F-].[Na+] [Sodium fluoride, sodium fluoride, reference compound]  pH, 72 h           6.09^a
2  CC(=O)[O-].[Na+] [Sodium acetate, sodium acetate]  pH, 72 h           5.64^c

Proceed to the following item.
The compound O=C([O-])CC(O)(CC(=O)[O-])C(=O)[O-].[Na+].[Na+].[Na+] [Sodium citrate, sodium citrate] showed pH, 72 h equal to 5.86^b

====

# System: semimembranosus beef muscles
# Protocol description: Glycogen content, pre-rigor injection of whole muscle
# Test parameters: 24 h; 200 mM, calcium chloride 300 mM
Marks after values point to notes of the source that are not given here.
Reported Glycogen, 24 h by item:

>>> print(df.to_string())
                                   compound        measured_result
0  [F-].[Na+] [Sodium fluoride, sodium fluoride, reference compound]  54.03^b μmol/g muscle
1  O=C([O-])CC(O)(CC(=O)[O-])C(=O)[O-].[Na+].[Na+].[Na+] [Sodium citrate, sodium citrate]  52.83^a μmol/g muscle
2  CC(=O)[O-].[Na+] [Sodium acetate, sodium acetate]  40.88^b μmol/g muscle

Proceed to the following item.
# value of Glycogen, 24 h, semimembranosus beef muscles, item [Ca+2].[Cl-].[Cl-] [Calcium chloride, calcium chloride, reference compound] = 45.90^ab μmol/g muscle

====

# System: semimembranosus beef muscles
# Protocol description: Warner-Bratzler shear force, pre-rigor injection of whole muscle
# Test parameters: 14 d postmortem; 200 mM, calcium chloride 300 mM
Readout: Shear force, 14 d (kg)
Supply the numeric figure in kg, leaving out any unit text.

Reference set, count: 2
>>> print(df.to_string())
                                   compound            readout  measured_result
0  CC(=O)[O-].[Na+] [Sodium acetate, sodium acetate]  Shear force, 14 d             5.08
1  [Ca+2].[Cl-].[Cl-] [Calcium chloride, calcium chloride, reference compound]  Shear force, 14 d             4.03

The compound [F-].[Na+] [Sodium fluoride, sodium fluoride, reference compound] showed Shear force, 14 d equal to 4.60

The compound O=C([O-])CC(O)(CC(=O)[O-])C(=O)[O-].[Na+].[Na+].[Na+] [Sodium citrate, sodium citrate] showed Shear force, 14 d equal to 3.96

====

Reported pH, 72 h by item:
# Tested on: triceps brachii beef muscles
# Protocol description: Muscle pH, pre-rigor injection of whole muscle
# Test parameters: 72 h after injection; 200 mM, calcium chloride 300 mM
# Method: Experiment were conducted to test the effects of pre-rigor injection of several compounds. Effects of these compounds on pH, color, tenderness and other related traits of low-value beef cuts were investigated. Ten steers (22 to 24 mo of age, 515 to 676 kg live weight) were slaughtered according to current industry procedures. […]
Marks after values point to notes of the source that are not given here.

Reference set, count: 3
In [3]: df
Out[3]:
                                   compound  measured_result
0  O=C([O-])CC(O)(CC(=O)[O-])C(=O)[O-].[Na+].[Na+].[Na+] [Sodium citrate, sodium citrate]           5.72^b
1  [Ca+2].[Cl-].[Cl-] [Calcium chloride, calcium chloride, reference compound]           5.67^b
2  CC(=O)[O-].[Na+] [Sodium acetate, sodium acetate]           5.48^c

Proceed to the following item.
The compound [F-].[Na+] [Sodium fluoride, sodium fluoride, reference compound] showed pH, 72 h equal to 5.95^a

====

# Tested on: supraspinatus beef muscles
# Protocol description: Warner-Bratzler shear force, pre-rigor injection of whole muscle
# Test parameters: 3 d postmortem; 200 mM, calcium chloride 300 mM
Marks after values point to notes of the source that are not given here.
Reported Shear force, 3 d by item:

Reference set, count: 3
                                   compound  measured_result
0  [F-].[Na+] [Sodium fluoride, sodium fluoride, reference compound]       6.13^bc kg
1  CC(=O)[O-].[Na+] [Sodium acetate, sodium acetate]        7.85^a kg
2  O=C([O-])CC(O)(CC(=O)[O-])C(=O)[O-].[Na+].[Na+].[Na+] [Sodium citrate, sodium citrate]        5.06^c kg

Proceed to the following item.
The compound [Ca+2].[Cl-].[Cl-] [Calcium chloride, calcium chloride, reference compound] showed Shear force, 3 d equal to 5.55^c kg

====

Reported pH, 72 h by item:
# Test system: semimembranosus beef muscles
# Protocol description: Muscle pH, pre-rigor injection of whole muscle
# Test parameters: 72 h; 200 mM, calcium chloride 300 mM
Marks after values point to notes of the source that are not given here.

Reference set, count: 3
                                   compound                        system  measured_result
0  CC(=O)[O-].[Na+] [Sodium acetate, sodium acetate]  semimembranosus beef muscles           5.38^d
1  [Ca+2].[Cl-].[Cl-] [Calcium chloride, calcium chloride, reference compound]  semimembranosus beef muscles           5.60^c
2  [F-].[Na+] [Sodium fluoride, sodium fluoride, reference compound]  semimembranosus beef muscles           5.97^a

Proceed to the following item.
The compound O=C([O-])CC(O)(CC(=O)[O-])C(=O)[O-].[Na+].[Na+].[Na+] [Sodium citrate, sodium citrate] showed pH, 72 h equal to 5.78^b
